Data provenance: patent US10047105B2

# Test system: S. pneumoniae ATCC 51916
# Assay Comment: MIC, S. pneumoniae
# Assay type: cell-based
# Study Conditions: S. pneumoniae
For each record, check the reported MIC Spn52: if it is below 8 µg/mL write yes, else write no.

Input CCc1[nH]c2nc(Sc3cnc4nccnc4c3)nc(N3CC(N4CCOCC4)C3)c2c1Cl.O=C(O)C(F)(F)F.O=C(O)C(F)(F)F ; condition: MIC Spn52 strictly below 8 µg/mL. Does it hold?
yes

Report whether reported MIC Spn52 is lower than 8 µg/mL (strictly) for CCc1[nH]c2nc(Sc3cnc4nccnc4c3)nc(N3CCC[C@H]3COC)c2c1Cl
yes

Is 8 µg/mL strictly greater than the compound's reported MIC Spn52? compound: CCc1[nH]c2nc(Sc3cccnc3)nc(NCCNc3ccc(C(=O)O)cn3)c2c1C=O
no

Field: below-cutoff. Rule: recorded MIC Spn52 strictly less than 8 µg/mL. Subject: CCc1[nH]c2nc(Sc3ccc4c(N)nc(N)nc4c3)nc(N3CCC3)c2c1Cl.O=C(O)C(F)(F)F.O=C(O)C(F)(F)F
no

Confirm or reject: MIC Spn52 of CCc1[nH]c2nc(Sc3cnc4nccnc4c3)nc(N3CCN(CCO)CC3)c2c1Cl.O=C(O)C(F)(F)F lies strictly below 8 µg/mL
no

Decide: MIC Spn52 of CCc1[nH]c2nc(Sc3ccc4c(N)ncnc4c3)nc(Oc3cncc(OC)c3)c2c1Cl strictly below 8 µg/mL?
no

Regarding CCc1[nH]c2nc(Sc3cnc(C#N)c(F)c3)nc(N3CC(O)C3)c2c1Cl.O=C(O)C(F)(F)F.O=C(O)C(F)(F)F , kindly confirm whether its MIC Spn52 is beneath 8 µg/mL.
no

Is MIC Spn52 strictly under 8 µg/mL for the entry CCOc1nc(Nc2cncnc2)nc2[nH]c(CC)c(Cl)c12.O=C(O)C(F)(F)F ?
no

Strictly below 8 µg/mL in MIC Spn52? CCc1[nH]c2nc(Sc3cnc4nccnc4c3)nc(NCCN)c2c1Cl.O=C(O)C(F)(F)F
no

Dear colleague, could you confirm whether MIC Spn52 of CCc1[nH]c2nc(Sc3ccc4ccc(C(=O)O)nc4c3)nc(N3CC[C@@H](N)C3)c2c1Cl falls below 8 µg/mL? Thanks.
no

is_below(MIC Spn52, 8 µg/mL) for CCc1[nH]c2nc(Sc3cnc4nccnc4c3)nc(N3CC(C)(NC(=O)OC(C)(C)C)C3)c2c1Cl.O=C(O)C(F)(F)F ?
yes

MIC Spn52 strictly < 8 µg/mL for this compound? CCc1[nH]c2nc(Sc3cccnc3)nc(NCCCn3ccnc3)c2c1C=O.O=C(O)C(F)(F)F.O=C(O)C(F)(F)F
no

Threshold test, MIC Spn52 < 8 µg/mL: CCc1[nH]c2nc(Sc3cnc4ncc(=O)[nH]c4c3)nc(N3CC[C@@H](N)C3)c2c1Cl
no

###

# Test system: S. aureus ATCC 13709
# Assay Comment: MIC, antibacterial potency, S. aureus
# Format: cell-based
# Study Conditions: S. aureus (SA); in µg/mL
Measured Endpoint: MIC, SA

Some solved entries appear below for comparison.
Using the record for CCc1[nH]c2nc(Oc3cc4ncn(C)c4[n+]([O-])c3)nc(Oc3cnc4c(c3)ncn4C)c2c1Cl , state its measured MIC, SA.
>64

Name the recorded MIC, SA of the compound listed here: CCc1[nH]c2nc(Oc3ccc4nccnc4c3)nc(OC3CCNCC3)c2c1Cl
>64

Supply MIC, SA value. Item: CCc1[nH]c2nc(Oc3cccc(C#N)c3)nc(/C=C\c3cccc(OC)c3)c2c1Cl
>64

Please supply the value of reported MIC, SA for the item CCc1[nH]c2nc(Sc3cnc4nccnc4c3)nc(N3C[C@@H]4[C@H](C3)[C@@]4(N)CO)c2c1Cl
<=0.5

---
// fetch MIC, SA given entry NC1C2CN(c3nc(Sc4cnc5ccc[n+]([O-])c5c4)nc4[nH]c(CC(F)(F)F)c(Cl)c34)CC12 (stereo not shown)
>64

Return MIC, SA (reported value) for this compound: CCc1[nH]c2nc(Sc3ccc4cc(C#N)c[n+]([O-])c4c3)nc(N3CC4C(N)C4C3)c2c1Cl (stereo not shown)
<=0.5

Name the recorded MIC, SA of the item CCc1[nH]c2nc(Sc3cnc4nccnc4c3)nc(Oc3cccc(C#N)c3)c2c1Cl in your answer.
<=0.5

###

# Tested on: S. pneumoniae ATCC 51916
# Assay Comment: MIC, S. pneumoniae
# Assay type: cell-based
# Study Conditions: S. pneumoniae
Measured Endpoint: MIC Spn52

Identify MIC Spn52 associated with the compound CCOc1nc(Nc2cccc(C(=O)O)c2)nc2[nH]c(CC)c(Br)c12.O=C(O)C(F)(F)F
> 64 µg/mL

Tell me measured MIC Spn52 for CCOc1nc(Sc2nc(C(=O)OC)c(C(C)C)s2)nc2[nH]c(CC)c(Br)c12 please.
> 64 µg/mL

// Input: O=C(O)C(F)(F)F.OCCc1[nH]c2nc(Oc3cccnc3)nc(Oc3cncnc3)c2c1Cl . Output its MIC Spn52 only.
> 64 µg/mL

Determine its reported MIC Spn52: CCc1[nH]c2nc(Sc3cnc4ccoc4c3)nc(N3CCC(N)C3)c2c1Br.O=C(O)C(F)(F)F (centres unmarked)
> 64 µg/mL

Please supply the value of reported MIC Spn52 for the item CCc1[nH]c2nc(Sc3nc(C(=O)O)cs3)nc(N3CC(Cc4cncnc4)C3)c2c1Cl.O=C(O)C(F)(F)F
> 64 µg/mL

Please indicate MIC Spn52 recorded for CCc1[nH]c2nc(Sc3cnc4nccnc4c3)nc(NCCNC)c2c1Cl.O=C(O)C(F)(F)F
> 64 µg/mL

Name the recorded MIC Spn52 of the compound listed here: CCc1nc2c(N3CC(N)C3)nc(Sc3cnc4c(N)nc(C)nc4c3)nc2[nH]1
> 16 µg/mL

Identify measured MIC Spn52 corresponding to CCOc1nc(Nc2cnc3c(c2)nnn3C)nc2[nH]c(CC)c(Br)c12.O=C(O)C(F)(F)F
> 8 µg/mL

###

# Tested on: S. pneumoniae ATCC 51916
# Assay Comment: MIC, S. pneumoniae
# Assay type: cell-based
# Study Conditions: S. pneumoniae
Measured Endpoint: MIC Spn52

Specify MIC Spn52 for CCOc1nc(Sc2cc(=O)[nH]c(=O)[nH]2)nc2[nH]c(CC)c(Cl)c12 and stop.
8 µg/mL

Provide MIC Spn52 value for the following molecule: CCc1[nH]c2nc(Sc3nc(C(=O)OC)c(Cl)s3)nc(OCC3CCC3)c2c1Cl
64 µg/mL

Hello, please tell me recorded MIC Spn52 for this one: CCOc1nc(Nc2cnc3ccccc3c2)nc2[nH]c(CC)c(Br)c12.O=C(O)C(F)(F)F
> 64 µg/mL

Using known records, supply MIC Spn52 for CCOC(=O)c1cnc(Sc2nc(OCC)c3c(Br)c(CC)[nH]c3n2)s1
> 64 µg/mL

Query MIC Spn52 for CCc1[nH]c2nc(Sc3ccc4nc[nH]c(=O)c4c3)nc(N3CC[C@@H](N)C3)c2c1Cl
8 µg/mL

Quickly give me recorded MIC Spn52 for CCc1[nH]c2nc(Nc3cnc4nccnc4c3)nc(N3CC(O)C3)c2c1Cl.O=C(O)C(F)(F)F
> 64 µg/mL

Please look at this molecule and report its MIC Spn52: CCOc1nc(Nc2ccc(Cl)c3ncccc23)nc2[nH]c(CC)c(Br)c12.O=C(O)C(F)(F)F
32 µg/mL

Indicate the recorded MIC Spn52 value for this molecule: CCc1[nH]c2nc(Sc3cnc4nccnc4c3)nc(N3CC(CNC(=N)N)C3)c2c1Cl.O=C(O)C(F)(F)F
> 64 µg/mL

Write down MIC Spn52 measured for item CCc1[nH]c2nc(Sc3ccc4c(N5CCNCC5)ccnc4c3)nc(N3CC(O)C3)c2c1Br
8 µg/mL

Please supply the value of reported MIC Spn52 for the item CCc1[nH]c2nc(Sc3cc(=O)n(CC(C)O)c(=O)[nH]3)nc(N3CC(O)C3)c2c1Br (centres unmarked)
4 µg/mL

Provide MIC Spn52 value for the following molecule: C=CCc1nc(Cc2cccnc2)nc2[nH]c(CC)c(Cl)c12
32 µg/mL

Give the measured MIC Spn52 for CCc1[nH]c2nc(Sc3ccc(C#N)c(F)c3)nc(N3CC[C@@H](N)C3)c2c1Cl.O=C(O)C(F)(F)F
4 µg/mL

Answer with the recorded MIC Spn52 of CCc1[nH]c2nc(Sc3cnc4nccnc4c3)nc(N3CC4CNCC43)c2c1Cl.O=C(O)C(F)(F)F (centres unmarked) only.
64 µg/mL

Please indicate MIC Spn52 recorded for CCc1[nH]c2nc(Sc3cnc4nccnc4c3)nc(N3CCc4nc(N)sc4C3)c2c1Cl
4 µg/mL

Supply MIC Spn52 value. Item: CCc1[nH]c2nc(Sc3ccc4nnc(C(=O)NCCCN5CCN(C)CC5)nc4c3)nc(N3CC[C@@H](N)C3)c2c1Cl
32 µg/mL

For the molecule CCc1[nH]c2nc(Sc3cnc4nccnc4c3)nc(N3CC(NC(=O)c4cnc[nH]4)C3)c2c1Cl , report MIC Spn52.
1 µg/mL

Please report the measured MIC Spn52 for CCc1[nH]c2nc(Sc3cnc4nccnc4c3)nc(N3CC(CNC(=O)C4CCC4)C3)c2c1Cl
2 µg/mL

Please look at this molecule and report its MIC Spn52: CCc1[nH]c2nc(Sc3cccc(CC(=O)OC)c3)nc(Cl)c2c1Br
64 µg/mL

Given CCOc1nc(Nc2ccc3nccnc3c2)nc2[nH]c(CC)c(Br)c12.O=C(O)C(F)(F)F , respond with its MIC Spn52.
> 64 µg/mL

State its MIC Spn52: CCc1[nH]c2nc(Sc3cc(=O)n(CC4CC4)c(=O)[nH]3)nc(N3CC(O)C3)c2c1Br
2 µg/mL
